Test system: Rattus norvegicus
protocol_details: Ulcerogenic activity in fasted albino rat assessed as ulcer index at 100 mg/kg po administered qd for 3 days measured on day 4
Assay type: toxicity, organism-based
Parameters: dose 100 mg/kg, route oral
settings: in vivo, 72 h
# UI annotations

Solved entries:
test_smiles	UI
N#Cc1c(Nc2ccc(O)cc2)nc(SCC(=O)Nn2c(COc3ccc(Cl)cc3Cl)nc3ccccc3c2=O)nc1-c1ccc(O)cc1	14.22
N#Cc1c(-c2ccccc2)nc(SCC(=O)Nn2c(COc3ccc(Cl)cc3Cl)nc3ccccc3c2=O)[nH]c1=O	14.4
N#Cc1c(Nc2ccc(O)cc2)nc(SCC(=O)Nn2c(COc3ccc(Cl)cc3Cl)nc3ccccc3c2=O)nc1-c1ccc(Cl)cc1	14.43
N#Cc1c(-c2ccccc2)nc(SCC(=O)Nn2c(COc3ccc(Cl)cc3Cl)nc3ccccc3c2=O)n(Cc2ccccc2)c1=O	10.9
N#Cc1c(Nc2ccc(Cl)cc2)nc(SCC(=O)Nn2c(COc3ccc(Cl)cc3Cl)nc3ccccc3c2=O)nc1-c1ccc(O)cc1	12.08

Provide only the value of recorded UI for `N#Cc1c(Nc2ccccc2)nc(SCC(=O)Nn2c(COc3ccc(Cl)cc3Cl)nc3ccccc3c2=O)nc1-c1ccccc1` 13.26

Provide only the value of recorded UI for `N#Cc1c(-c2ccc(Cl)cc2)nc(SCC(=O)Nn2c(COc3ccc(Cl)cc3Cl)nc3ccccc3c2=O)n(Cc2ccccc2)c1=O` 11.3

Provide only the value of recorded UI for `N#Cc1c(Nc2ccccc2)nc(SCC(=O)Nn2c(COc3ccc(Cl)cc3Cl)nc3ccccc3c2=O)nc1-c1ccc(O)cc1` 11.38

Provide only the value of recorded UI for `Cn1c(SCC(=O)Nn2c(COc3ccc(Cl)cc3Cl)nc3ccccc3c2=O)nc(-c2ccc(O)cc2)c(C#N)c1=O` 11.22

====

Test system: Rattus norvegicus
protocol_details: Antiinflammatory activity in albino rat assessed as inhibition of carrageenan-induced paw edema at 100 mg/kg, po administered 1 hr prior to carrageenan-challenge measured after 3 hrs
Assay type: functional
Classify as follows. Reported inhibition in vivo at 100 mg/kg greater than or equal to 70%: 1. Reported inhibition in vivo at 100 mg/kg below: -1.

test_smiles	test_target	label
N#Cc1c(Nc2ccc(Cl)cc2)nc(SCC(=O)Nn2c(COc3ccc(Cl)cc3Cl)nc3ccccc3c2=O)nc1-c1ccccc1	Rattus norvegicus	-1
N#Cc1c(-c2ccc(O)cc2)nc(SCC(=O)Nn2c(COc3ccc(Cl)cc3Cl)nc3ccccc3c2=O)n(Cc2ccccc2)c1=O	Rattus norvegicus	-1
Cn1c(SCC(=O)Nn2c(COc3ccc(Cl)cc3Cl)nc3ccccc3c2=O)nc(-c2ccccc2)c(C#N)c1=O	Rattus norvegicus	-1
N#Cc1c(-c2ccc(Cl)cc2)nc(SCC(=O)Nn2c(COc3ccc(Cl)cc3Cl)nc3ccccc3c2=O)[nH]c1=O	Rattus norvegicus	-1
N#Cc1c(Nc2ccccc2)nc(SCC(=O)Nn2c(COc3ccc(Cl)cc3Cl)nc3ccccc3c2=O)nc1-c1ccccc1	Rattus norvegicus	1
Cn1c(SCC(=O)Nn2c(COc3ccc(Cl)cc3Cl)nc3ccccc3c2=O)nc(-c2ccc(Cl)cc2)c(C#N)c1=O	Rattus norvegicus	1

Say whether `N#Cc1c(Nc2ccc(O)cc2)nc(SCC(=O)Nn2c(COc3ccc(Cl)cc3Cl)nc3ccccc3c2=O)nc1-c1ccc(O)cc1` shows inhibition in vivo at 100 mg/kg of 70% or more. 1
